Form field: MIC (one value per entry).
test system: P. gingivalis ATCC 33277
Note: unit µg/mL is implicit; provide only the numeric part.

Reference set, count: 2
COc1cc(Cl)cc(C(=O)N2CCc3[nH]cnc3C2)c1    1000
O=C(c1cc(Cl)cc(Cl)c1)N1CCc2[nH]cnc2C1    1000

## Task Find MIC (P. gingivalis ATCC 33277) for the entry CC1(C)c2nc[nH]c2CCN1Cc1cc(F)c(F)c(F)c1
## Result 500

====

Form field: MBC (one value per entry).
tested on: P. gingivalis ATCC 33277; test: MIC/MBC, cultivation in 2-fold dilution series; assay type: cell-based; settings: Porphyromonas gingivalis, ATCC33277; P.g. ATCC 33277; no growth of subcultivation or reduction by 99.9%
Note: unit µg/mL is implicit; provide only the numeric part.

O=C(c1cc(Cl)cc(Cl)c1)N1CCc2[nH]cnc2C1    2000
C[C@H]1c2cccc(O)c2C(=O)C2=C(O)[C@]3(O)C(=O)C(C(N)=O)=C(O)[C@@H](N(C)C)[C@@H]3[C@@H](O)[C@@H]21 [Doxy, Doxycycline, reference compound]    50000
CC1(C)c2nc[nH]c2CCN1Cc1cc(F)c(F)c(F)c1    1000

## Task // query MBC value for entry COc1cc(Cl)cc(C(=O)N2CCc3[nH]cnc3C2)c1
## Result 2000

====

target: PgQC (Porphyromonas gingivalis, UniProt Q7MT37); construct: Ki; RA (average residual QC activity of PgQC); other: c = 1 μM; other: c = 1.5 μM; other: c = 10 μM; other: c = 100 μM; other: c = 12 μM; RA; fused on or other part: N-terminal His tag from pET28a(+), cleaved off by thrombin before the enzymatic characterisation; test: biochemical; set-up: species or system P. gingivalis; settings: inhibition of PgQC, H-Gln-AMC, 50 mM Tris-HCl, 50 mM NaCl pH 8.0, 30° C.; read-out: Ki (average)
measuredProperty: Ki (µM)
Note: unit µM is implicit; provide only the numeric part.

Reference set, count: 5
O=C(c1ccc(F)cc1)N1CCc2[nH]cnc2C1    0.879
COc1ccc(C(=O)N2CCc3[nH]cnc3C2)cc1    0.833
O=C(c1ccc(-c2ccccc2)cc1)N1CCc2[nH]cnc2C1    1.9
O=C(c1ccc2c(c1)OCCO2)N1CCc2[nH]cnc2C1    1.33
O=C(c1cc(Cl)cc(Cl)c1)N1CCc2[nH]cnc2C1    0.1

// switching to the query compound
## Task // query Ki value for entry O=C(c1ccc2c(c1)OCO2)N1CCc2[nH]cnc2C1
## Result 0.56

====

target: PgQC (Porphyromonas gingivalis, UniProt Q7MT37); construct: Ki; RA (average residual QC activity of PgQC); other: c = 1 μM; other: c = 1.5 μM; other: c = 10 μM; other: c = 100 μM; other: c = 12 μM; RA; fused on or other part: N-terminal His tag from pET28a(+), cleaved off by thrombin before the enzymatic characterisation; test: biochemical; design: species or system P. gingivalis; conditions: Ki, Table 3 fit, competitive inhibition, 1% (v/v) DMSO, pH 8.0, 30° C.
measuredProperty: pKi
The meaning of pKi here: minus log10 of the concentration in molar units.

## Task // query pKi value for entry O=C(c1cc(Cl)cc(Cl)c1)N1CCc2[nH]cnc2C1
## Result 6.98

====

Form field: pKi (one value per entry).
target: PgQC (Porphyromonas gingivalis, UniProt Q7MT37); construct: Ki; RA (average residual QC activity of PgQC); other: c = 1 μM; other: c = 1.5 μM; other: c = 10 μM; other: c = 100 μM; other: c = 12 μM; RA; fused on or other part: N-terminal His tag from pET28a(+), cleaved off by thrombin before the enzymatic characterisation; experiment: biochemical; design: species or system P. gingivalis; details: inhibition of PgQC, H-Gln-AMC, 50 mM Tris-HCl, 50 mM NaCl pH 8.0, 30° C.; read-out: Ki (average)
The meaning of pKi here: minus log10 of the concentration in molar units.

Reference set, count: 9
COc1cccc(C(=O)N2CCc3[nH]cnc3C2)c1    6.47
c1ccc(CN2CCc3[nH]cnc3C23COC3)cc1    5.75
COc1cc(OC)cc(C(=O)N2CCc3[nH]cnc3C2)c1    6.03
O=C(c1cccc(Cl)c1)N1CCc2[nH]cnc2C1    6.76
O=C(Cc1ccccc1)N1CCc2[nH]cnc2C1    5.77
O=C(c1ccc(Cl)cc1)N1CCc2[nH]cnc2C1    6.17
CCCOc1cccc(C(=O)N2CCc3[nH]cnc3C2)c1    6.11
COc1cc(Cl)cc(C(=O)N2CCc3[nH]cnc3C2)c1    7.06
O=C(c1cc(F)c(F)c(F)c1)N1CCc2[nH]cnc2C1    6.04

## Task // query pKi value for entry O=C(c1ccc2ccccc2c1)N1CCc2[nH]cnc2C1
## Result 6.90

====

biological target: PgQC (Porphyromonas gingivalis, UniProt Q7MT37); construct: Ki; RA (average residual QC activity of PgQC); other: c = 1 μM; other: c = 1.5 μM; other: c = 10 μM; other: c = 100 μM; other: c = 12 μM; RA; fused on or other part: N-terminal His tag from pET28a(+), cleaved off by thrombin before the enzymatic characterisation; test: biochemical; design: species or system P. gingivalis; settings: read-out: RA (average residual QC activity of PgQC)
Form field: remaining activity at 1 µM (one value per entry).
Answer format: value, then unit.

Reference set, count: 2
O=C(c1cccc(-c2ccccc2)c1)N1CCc2[nH]cnc2C1    47%
c1cc(CN2CCc3[nH]cnc3C2)cc(N2CCCC2)c1    80%

## Task // query remaining activity at 1 µM value for entry COc1cc(Cl)cc(C(=O)N2CCc3[nH]cnc3C2)c1
## Result 17%

## Task // query remaining activity at 1 µM value for entry CC1(C)c2nc[nH]c2CCN1Cc1cc(F)c(F)c(F)c1
## Result 22%

## Task // query remaining activity at 1 µM value for entry COc1cccc(CN2CCc3[nH]cnc3C2)c1
## Result 65%

====

target: PgQC (Porphyromonas gingivalis, UniProt Q7MT37); construct: Ki; RA (average residual QC activity of PgQC); other: c = 1 μM; other: c = 1.5 μM; other: c = 10 μM; other: c = 100 μM; other: c = 12 μM; RA; fused on or other part: N-terminal His tag from pET28a(+), cleaved off by thrombin before the enzymatic characterisation; assay: biochemical; design: species or system P. gingivalis; settings: Ki (average), inhibition of PgQC, H-Gln-AMC, 50 mM Tris-HCl, 50 mM NaCl pH 8.0, 30° C.
measuredProperty: Ki (nM)
Note: unit nM is implicit; provide only the numeric part.

Reference set, count: 5
CC1c2nc[nH]c2CCN1Cc1cc(F)c(F)c(F)c1 (centres unmarked)    528
CCCCOc1ccc(CN2CCc3[nH]cnc3C2)cc1    254
c1ccc(COc2ccc(CN3CCc4[nH]cnc4C3)cc2)cc1    192
Clc1ccc(CN2CCc3[nH]cnc3C2)cc1    540
c1nc2c([nH]1)CCN(Cc1ccc(OCCN3CCOCC3)cc1)C2    940

## Task // query Ki value for entry CC1(C)c2nc[nH]c2CCN1Cc1cc(F)c(F)c(F)c1
## Result 143

## Task // query Ki value for entry Cc1ccc(CN2CCc3[nH]cnc3C2)cc1
## Result 806

## Task // query Ki value for entry COC(=O)/C=C/CN1CCc2[nH]cnc2C1
## Result 3000

====

target: PgQC (Porphyromonas gingivalis, UniProt Q7MT37); construct: Ki; RA (average residual QC activity of PgQC); other: c = 1 μM; other: c = 1.5 μM; other: c = 10 μM; other: c = 100 μM; other: c = 12 μM; RA; fused on or other part: N-terminal His tag from pET28a(+), cleaved off by thrombin before the enzymatic characterisation; assay: biochemical; parameters: species or system P. gingivalis; conditions: Ki, exemplary determination (FIG. 4), 1% (v/v) DMSO, pH 8.0, 30° C.
measuredProperty: Ki (nM)
Note: unit nM is implicit; provide only the numeric part.

## Task Find Ki (PgQC (Porphyromonas gingivalis, UniProt Q7MT37)) for the entry O=C(c1cc(Cl)cc(Cl)c1)N1CCc2[nH]cnc2C1 [MWT-S-00431]
## Result 104

====

biological target: PgQC (Porphyromonas gingivalis, UniProt Q7MT37); construct: Ki; RA (average residual QC activity of PgQC); other: c = 1 μM; other: c = 1.5 μM; other: c = 10 μM; other: c = 100 μM; other: c = 12 μM; RA; fused on or other part: N-terminal His tag from pET28a(+), cleaved off by thrombin before the enzymatic characterisation; assay: biochemical; parameters: species or system P. gingivalis; settings: read-out: RA (average residual QC activity of PgQC)
measuredProperty: remaining activity at 100 µM
Answer format: value, then unit.

## Task // query remaining activity at 100 µM value for entry O=C(c1ccc2c(c1)OCCO2)N1CCc2[nH]cnc2C1 [MWT-S-00434]
## Result 3%

## Task // query remaining activity at 100 µM value for entry CC1c2nc[nH]c2CCN1C(=O)c1ccccc1 (centres unmarked) [MWT-S-00327]
## Result 18%

## Task // query remaining activity at 100 µM value for entry c1ccc(C2NCCc3[nH]cnc32)cc1 (centres unmarked) [MWT-S-00264]
## Result 92%

## Task // query remaining activity at 100 µM value for entry COc1cc(C(=O)N2CCc3[nH]cnc3C2)ccc1F [MWT-S-00436]
## Result 3%

## Task // query remaining activity at 100 µM value for entry CCCOc1cccc(C(=O)N2CCc3[nH]cnc3C2)c1 [MWT-S-00432]
## Result 2%
